Entry source: patent US20240108738A1

Target: T1, Human NKp46 Fc tag (Acro Biosystems, NC1-H5257) (human, UniProt O76036 22-255)
T1 construct: bought; also called Fc-tagged human NKp46
T1 sequence (O76036 22-255 limits assumed): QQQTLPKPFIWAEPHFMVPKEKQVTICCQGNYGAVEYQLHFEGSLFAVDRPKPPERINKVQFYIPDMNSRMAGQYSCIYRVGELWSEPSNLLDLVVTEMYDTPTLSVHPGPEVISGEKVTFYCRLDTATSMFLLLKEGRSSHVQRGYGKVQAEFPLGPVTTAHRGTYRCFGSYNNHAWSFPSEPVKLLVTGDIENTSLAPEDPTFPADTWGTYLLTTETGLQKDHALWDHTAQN
Experiment: SPR Method 1 and/or 2
Numbered stars: 1 amine (or outer) side, 2 acyl side, 3 side chain; on linkers, the order of the positions; unused ones are H or OH. Bridge positions count the residues as written; N and C are the ends. Square brackets hold non-standard residues; d marks the D form. Ends that are not written are not given here. * marks the point of attachment. TATA = O=C(CC[*:1])N1CN(C(=O)CC[*:2])CN(C(=O)CC[*:3])C1; Hyp = O=C(O)[C@@H]1C[C@@H](O)CN1; tBuAla = CC(C)(C)C[C@H](N)C(=O)O; Cba = N[C@@H](CC1CCC1)C(=O)O; Pent4ynoyl = C#CCCC(=O)*; Aib = CC(C)(N)C(=O)O
Provide the recorded Kd for the entries that follow.
Expressed in nM, but write only the number.

May I ask what Kd has been recorded for ACDLTTHNC[Cba]WGICA-NH2 (linker 2-9-14 via TATA, scaffold TATA) [BCY18286] ?
1230

What about this binder? ACDLTTHNCQWGIC[Aib]-NH2 (linker 2-9-14 via TATA, scaffold TATA) [BCY19717]
598

Please give the result for ACNLQAPCM[tBuAla]TGKVCA-NH2 (linker 2-8-15 via TATA, scaffold TATA) [BCY18320] too.
622

Try the binder Ac-CY[Cba]PDYLC[dK](Pent4ynoyl)DEYC-NH2 (linker 1-8-13 via TATA; SMILES C#CCCC(=O)NCCCC[C@H]1NC(=O)[C@@H]2CSCCC(=O)N3CN(CN(C3)C(=O)CCSC[C@H](NC(C)=O)C(=O)N[C@@H](Cc3ccc(O)cc3)C(=O)N[C@@H](CC3CCC3)C(=O)N3CCC[C@H]3C(=O)N[C@@H](CC(=O)O)C(=O)N[C@@H](Cc3ccc(O)cc3)C(=O)N[C@@H](CC(C)C)C(=O)N2)C(=O)CCSC[C@@H](C(N)=O)NC(=O)[C@H](Cc2ccc(O)cc2)NC(=O)[C@H](CCC(=O)O)NC(=O)[C@H](CC(=O)O)NC1=O, scaffold TATA) [BCY19684]
9.4

Cool, now ACDLTT[His3Me]NCQWGICA-NH2 (linker 2-9-14 via TATA; not fully specified, scaffold TATA) [BCY18279]
599

And for ACNLQA[Hyp]CMLTGKVCA-NH2 (linker 2-8-15 via TATA, scaffold TATA) [BCY18311] ?
795

Consider next the binder Ac-CNLQAPCMLTGKVC-NH2 (linker 1-7-14 via TATA (inferred), scaffold TATA) [BCY18293] in the same way.
3380

Next entry: ACLLHDHCPNTHPKLCAK(Pent4ynoyl)-NH2 (linker 2-8-16 via TATA (inferred), scaffold TATA) [BCY18005]
729

Try this binder too: ACNLQAPCLLTGKVCA-NH2 (linker 2-8-15 via TATA; also: scaffold TATA, TATB or TBMT, scaffold TATA) [BCY18313]
2750

And ACNLQKPCMKYPCA-NH2 (linker 2-8-13 via TATA; also: scaffold TATA, TATB or TBMT, scaffold TATA) [BCY14456] ?
703

Lookup ACYLPDYLC[dA]DEYCA-NH2 (linker 2-9-14 via TATA; N-terminus assumed; SMILES CC(C)C[C@@H]1NC(=O)[C@H](Cc2ccc(O)cc2)NC(=O)[C@H](CC(=O)O)NC(=O)[C@@H]2CCCN2C(=O)[C@H](CC(C)C)NC(=O)[C@H](Cc2ccc(O)cc2)NC(=O)[C@@H](NC(=O)[C@H](C)N)CSCCC(=O)N2CN3CN(C2)C(=O)CCSC[C@H](NC1=O)C(=O)N[C@H](C)C(=O)N[C@@H](CC(=O)O)C(=O)N[C@@H](CCC(=O)O)C(=O)N[C@@H](Cc1ccc(O)cc1)C(=O)N[C@H](C(=O)N[C@@H](C)C(N)=O)CSCCC3=O, scaffold TATA) [BCY15650]
10

Okay, and Ac-CY[Cba]PDYLC[dF]DEYC-NH2 (linker 1-8-13 via TATA, scaffold TATA) [BCY19682] ?
9
